- tgt: human plasma kallikrein (Homo sapiens (Human), UniProt P03952)
- Sequence (P03952 whole entry, looked up): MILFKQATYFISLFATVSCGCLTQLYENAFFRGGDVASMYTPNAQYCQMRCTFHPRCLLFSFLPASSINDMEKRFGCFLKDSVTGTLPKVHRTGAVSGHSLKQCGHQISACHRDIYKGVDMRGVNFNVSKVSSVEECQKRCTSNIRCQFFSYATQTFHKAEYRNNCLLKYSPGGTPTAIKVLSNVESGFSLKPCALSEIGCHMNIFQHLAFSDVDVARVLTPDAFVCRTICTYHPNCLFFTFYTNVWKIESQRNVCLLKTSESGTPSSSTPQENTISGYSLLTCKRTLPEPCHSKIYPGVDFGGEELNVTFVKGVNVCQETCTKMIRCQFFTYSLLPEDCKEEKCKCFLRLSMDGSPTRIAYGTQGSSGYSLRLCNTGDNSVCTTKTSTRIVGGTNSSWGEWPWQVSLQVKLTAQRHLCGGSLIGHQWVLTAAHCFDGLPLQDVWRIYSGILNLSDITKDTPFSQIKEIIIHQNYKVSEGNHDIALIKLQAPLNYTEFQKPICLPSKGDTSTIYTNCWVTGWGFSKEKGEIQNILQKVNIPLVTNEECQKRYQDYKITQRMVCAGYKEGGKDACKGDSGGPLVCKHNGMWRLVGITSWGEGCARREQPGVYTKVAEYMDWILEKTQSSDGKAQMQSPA
- Sequence (P03952 whole entry partner, looked up): as the sequence (P03952 whole entry, looked up) above
- run description: Plasma kallikrein activity assay (chromogenic substrate S2302)
- experimental context: 2 nM kallikrein, 80 μM S2302, 30° C., pH 7.8; Cheng-Prusoff; reported as ranges
observed property: Ki

Form: compound = Cc1cc(C(=O)Nc2cccc(C(NCC3CC3)c3cc(O)ccc3O)c2)n(-c2cccc(CN)c2)n1 (stereo not shown) [Compound 146g] ; Ki = 0.0001 to 0.05 µM

Source: patent US11230530B2
